Target: ferroportin (Homo sapiens, UniProt Q9NP59)
Test: T47D cell-based ferroportin internalization assay in presence of 0.5% mouse serum albumin (MSA)
Conditions: T47D cells
Numbered stars: 1 amine (or outer) side, 2 acyl side, 3 side chain; on linkers, the order of the positions; unused ones are H or OH. Bridge positions count the residues as written; N and C are the ends. Square brackets hold non-standard residues; d marks the D form. Side chains are listed from the residue outwards. Peptide text beside a SMILES is read from it. * marks the point of attachment. Dip = N[C@H](C(=O)O)C(c1ccccc1)c1ccccc1; Hag = O=C([C@H](CCC=[*:3])N[*:1])[*:2]; Palmitoyl = CCCCCCCCCCCCCCCC(=O)*; NMeF = CN[C@@H](Cc1ccccc1)C(=O)O; tBuAla = CC(C)(C)C[C@H](N)C(=O)O; β3hF = N[C@H](CC(=O)O)Cc1ccccc1; Isovaleryl = CC(C)CC(=O)*; Ahx = NCCCCCC(=O)O
measurement-name: IC50

INSERT INTO results (compound, tested_target, measurement_name, obs_value) VALUES
  ('CCCCCCCCCCCCCCCC(=O)NCCCCCC(=O)NCCCC[C@H](NC(=O)[C@H](Cc1ccccc1)N(C)C(=O)[C@@H]1CCC=CCC[C@H](NC(=O)CC(C)C)C(=O)N[C@@H]([C@@H](C)O)C(=O)N[C@@H](Cc2c[nH]cn2)C(=O)N[C@@H](C(c2ccccc2)c2ccccc2)C(=O)N2CCC[C@H]2C(=O)N[C@@H](C)C(=O)N[C@@H]([C@@H](C)CC)C(=O)N1)C(=O)N[C@H](CCCCN)C(N)=O [Compd 54]', 'ferroportin (Homo sapiens, UniProt Q9NP59)', 'IC50', '100 to 500 nM'),
  ('CCCCCCCCCCCCCCCC(=O)NCCCCCC(=O)NCCCC[C@H](NC(=O)C[C@H](Cc1ccccc1)NC(=O)[C@@H]1CCC=CCC[C@H](NC(=O)CC(C)C)C(=O)N[C@@H]([C@@H](C)O)C(=O)N[C@@H](Cc2c[nH]cn2)C(=O)N[C@@H](C(c2ccccc2)c2ccccc2)C(=O)N2CCC[C@H]2C(=O)N[C@@H](CC(C)(C)C)C(=O)N[C@@H]([C@@H](C)CC)C(=O)N1)C(=O)N[C@H](CCCCN)C(N)=O [Compd 62] (Isovaleryl-[Hag]TH[Dip]P[tBuAla]I[Hag][β3hF]K([Ahx-Palmitoyl])[dK]-NH2; staple 1-8)', 'ferroportin (Homo sapiens, UniProt Q9NP59)', 'IC50', '1 to 10 nM'),
  ('CCCCCCCCCCCCCCCC(=O)NCCCCCC(=O)NCCCC[C@H](NC(=O)C[C@H](Cc1ccccc1)NC(=O)[C@@H]1CCC=CCC[C@H](NC(=O)CC(C)C)C(=O)N[C@@H]([C@@H](C)O)C(=O)N[C@@H](Cc2c[nH]cn2)C(=O)N(C)[C@@H](Cc2ccccc2)C(=O)N2CCC[C@H]2C(=O)N[C@@H](C)C(=O)N[C@@H]([C@@H](C)CC)C(=O)N1)C(=O)N[C@H](CCCCN)C(N)=O [Compd 51] (Isovaleryl-[Hag]TH[NMeF]PAI[Hag][β3hF]K([Ahx-Palmitoyl])[dK]-NH2; staple 1-8)', 'ferroportin (Homo sapiens, UniProt Q9NP59)', 'IC50', '> 500 nM');

Input line: Please state recorded IC50 (tested on ferroportin (Homo sapiens, UniProt Q9NP59)) of CCCCCCCCCCCCCCCC(=O)NCCCCCC(=O)NCCCC[C@H](NC(=O)C[C@H](Cc1ccccc1)NC(=O)[C@@H]1CCC=CCC[C@H](NC(=O)CC(C)C)C(=O)N[C@@H]([C@@H](C)O)C(=O)N[C@@H](Cc2c[nH]cn2)C(=O)N[C@@H](C(c2ccccc2)c2ccccc2)C(=O)N2CCC[C@H]2C(=O)N[C@@H](C)C(=O)N[C@@H]([C@@H](C)CC)C(=O)N1)C(=O)N[C@@H](CC(C)(C)C)C(N)=O [Compd 65]
Output line: 1 to 10 nM

Input line: Let us now turn to CCCCCCCCCCCCCCCC(=O)NCCCCCC(=O)NCCCC[C@H](NC(=O)C[C@H](Cc1ccccc1)NC(=O)[C@@H]1CCCC=CCC[C@@H](NC(=O)CC(C)C)C(=O)N[C@@H]([C@@H](C)O)C(=O)N[C@@H](Cc2c[nH]cn2)C(=O)N[C@@H](C(c2ccccc2)c2ccccc2)C(=O)N2CCC[C@H]2C(=O)N[C@@H](C)C(=O)N[C@@H]([C@@H](C)CC)C(=O)N1)C(=O)N[C@H](CCCCN)C(N)=O [Compd 67]
Output line: 10 to 100 nM

Input line: Also check CCCCCCCCCCCCCCCC(=O)NCCCCCC(=O)NCCCC[C@@H]1NC(=O)[C@@H]2CCCN2C(=O)[C@H](C(c2ccccc2)c2ccccc2)NC(=O)[C@H](Cc2c[nH]cn2)NC(=O)[C@H]([C@@H](C)O)NC(=O)[C@@H](NC(=O)CC(C)C)CCC=CCC[C@@H](C(=O)N[C@H](CC(N)=O)Cc2ccccc2)NC(=O)[C@H]([C@@H](C)CC)NC1=O [Compd 24] (Isovaleryl-[Hag]TH[Dip]PK([Ahx-Palmitoyl])I[Hag][β3hF]-NH2; staple 1-8)
Output line: 10 to 100 nM

---

Listed here: items and their measured IC50.
Target: human ferroportin (SLC40A1) (Homo sapiens)
Experiment: FPN activity assay: internalization/degradation of ferroportin-GFP in stably transfected HEK293 cells (decrease in GFP fluorescence)
Settings: compound incubated at least 18 hours

INSERT INTO measurements (smiles_code, obs_value) VALUES
  ('CCCCCCCCCCCCCCCC(=O)NCCCCCC(=O)NCCCC[C@H](NC(=O)C[C@H](Cc1ccccc1)NC(=O)[C@@H]1CC=CCC[C@H](NC(=O)CC(C)C)C(=O)N[C@@H]([C@@H](C)O)C(=O)N[C@@H](Cc2c[nH]cn2)C(=O)N[C@@H](C(c2ccccc2)c2ccccc2)C(=O)N2CCC[C@H]2C(=O)N[C@@H](C)C(=O)N[C@@H]([C@@H](C)CC)C(=O)N1)C(=O)N[C@@H](CCCNC(=N)N)C(N)=O', '1 to 10 nM');

# context switch: different molecule, same IC50
Input line: Consider the molecule CCCCCCCCCCCCCCCC(=O)NCCCCCC(=O)NCCCC[C@H](NC(=O)C[C@H](Cc1ccccc1)NC(=O)[C@H]1CCCC=CCC[C@H](NC(=O)CC(C)C)C(=O)N[C@@H]([C@@H](C)O)C(=O)N[C@@H](Cc2c[nH]cn2)C(=O)N[C@@H](C(c2ccccc2)c2ccccc2)C(=O)N2CCC[C@H]2C(=O)N[C@@H](C)C(=O)N[C@@H]([C@@H](C)CC)C(=O)N1)C(=O)N[C@H](CCCCN)C(N)=O and give its measured IC50.
Output line: 10 to 100 nM

---

Biological target: human ferroportin (SLC40A1) (Homo sapiens, UniProt Q9NP59)
Sequence (Q9NP59 whole entry): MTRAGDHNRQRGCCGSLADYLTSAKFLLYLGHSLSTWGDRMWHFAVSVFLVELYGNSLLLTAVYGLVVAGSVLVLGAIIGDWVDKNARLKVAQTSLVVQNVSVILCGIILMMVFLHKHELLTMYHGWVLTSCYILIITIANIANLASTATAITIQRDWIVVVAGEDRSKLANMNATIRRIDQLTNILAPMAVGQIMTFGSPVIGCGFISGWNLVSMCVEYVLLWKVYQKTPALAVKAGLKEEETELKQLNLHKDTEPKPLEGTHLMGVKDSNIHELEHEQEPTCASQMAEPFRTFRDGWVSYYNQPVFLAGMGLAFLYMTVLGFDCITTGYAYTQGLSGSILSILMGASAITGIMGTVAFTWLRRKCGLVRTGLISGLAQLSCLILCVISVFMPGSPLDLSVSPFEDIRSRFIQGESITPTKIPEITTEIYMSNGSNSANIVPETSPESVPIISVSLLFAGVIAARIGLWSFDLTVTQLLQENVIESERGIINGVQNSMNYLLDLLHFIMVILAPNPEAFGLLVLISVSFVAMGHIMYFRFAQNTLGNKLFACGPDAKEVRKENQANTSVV
Test: FPN activity assay: internalization/degradation of ferroportin-GFP in stably transfected HEK293 cells (decrease in GFP fluorescence)
Assay type: cell-based
Conditions: compound incubated at least 18 hours
Experimental: Peptide analogues were tested in vitro for induction of internalization of the human ferroportin protein. Following internalization, the ferroporin protein is degraded. The assay used (FPN activity assay) measures a decrease in fluorescence of the receptor. […] The ferroportin receptor was subcloned into a mammalian GFP expression vector containing a neomycin (G418) resistance marker in such that the reading frame of the ferroportin was fused in frame with the GFP protein. […]
Numbered stars: 1 amine (or outer) side, 2 acyl side, 3 side chain; on linkers, the order of the positions; unused ones are H or OH. Bridge positions count the residues as written; N and C are the ends. Square brackets hold non-standard residues; d marks the D form. Side chains are listed from the residue outwards. Peptide text beside a SMILES is read from it. * marks the point of attachment. Dip = N[C@H](C(=O)O)C(c1ccccc1)c1ccccc1; Hag = O=C([C@H](CCC=[*:3])N[*:1])[*:2]; Palmitoyl = CCCCCCCCCCCCCCCC(=O)*; tBuAla = CC(C)(C)C[C@H](N)C(=O)O; β3hF = N[C@H](CC(=O)O)Cc1ccccc1; Isovaleryl = CC(C)CC(=O)*; Ahx = NCCCCCC(=O)O
In this section we review reported IC50 values for a set of compounds.

INSERT INTO results (compound, obs_value) VALUES
  ('CCCCCCCCCCCCCCCC(=O)NCCCCCC(=O)NCCCC[C@H](NC(=O)C[C@H](Cc1ccccc1)NC(=O)[C@H]1CCC=CCCC[C@@H](NC(=O)CC(C)C)C(=O)N[C@@H]([C@@H](C)O)C(=O)N[C@@H](Cc2c[nH]cn2)C(=O)N[C@@H](C(c2ccccc2)c2ccccc2)C(=O)N2CCC[C@H]2C(=O)N[C@@H](C)C(=O)N[C@@H]([C@@H](C)CC)C(=O)N1)C(=O)N[C@H](CCCCN)C(N)=O', '100 to 500 nM');

Input line: Need IC50 of CCCCCCCCCCCCCCCC(=O)NCCCCCC(=O)NCCCC[C@H](NC(=O)C[C@H](Cc1ccccc1)NC(=O)[C@@H]1CCC=CCC[C@H](NC(=O)CC(C)C)C(=O)N[C@@H]([C@@H](C)O)C(=O)N[C@@H](Cc2c[nH]cn2)C(=O)N[C@@H](C(c2ccccc2)c2ccccc2)C(=O)N2CCC[C@H]2C(=O)N[C@@H](CC(C)(C)C)C(=O)N[C@@H]([C@@H](C)CC)C(=O)N1)C(=O)N[C@H](CCCCN)C(N)=O [Compd 62] (Isovaleryl-[Hag]TH[Dip]P[tBuAla]I[Hag][β3hF]K([Ahx-Palmitoyl])[dK]-NH2; staple 1-8) , thanks.
Output line: 10 to 100 nM
